# Test Target: Histone acetyltransferase KAT2B (Homo sapiens) (UniProt Q92831)
# Sequence (Q92831 whole entry, looked up, the tested form may be a part): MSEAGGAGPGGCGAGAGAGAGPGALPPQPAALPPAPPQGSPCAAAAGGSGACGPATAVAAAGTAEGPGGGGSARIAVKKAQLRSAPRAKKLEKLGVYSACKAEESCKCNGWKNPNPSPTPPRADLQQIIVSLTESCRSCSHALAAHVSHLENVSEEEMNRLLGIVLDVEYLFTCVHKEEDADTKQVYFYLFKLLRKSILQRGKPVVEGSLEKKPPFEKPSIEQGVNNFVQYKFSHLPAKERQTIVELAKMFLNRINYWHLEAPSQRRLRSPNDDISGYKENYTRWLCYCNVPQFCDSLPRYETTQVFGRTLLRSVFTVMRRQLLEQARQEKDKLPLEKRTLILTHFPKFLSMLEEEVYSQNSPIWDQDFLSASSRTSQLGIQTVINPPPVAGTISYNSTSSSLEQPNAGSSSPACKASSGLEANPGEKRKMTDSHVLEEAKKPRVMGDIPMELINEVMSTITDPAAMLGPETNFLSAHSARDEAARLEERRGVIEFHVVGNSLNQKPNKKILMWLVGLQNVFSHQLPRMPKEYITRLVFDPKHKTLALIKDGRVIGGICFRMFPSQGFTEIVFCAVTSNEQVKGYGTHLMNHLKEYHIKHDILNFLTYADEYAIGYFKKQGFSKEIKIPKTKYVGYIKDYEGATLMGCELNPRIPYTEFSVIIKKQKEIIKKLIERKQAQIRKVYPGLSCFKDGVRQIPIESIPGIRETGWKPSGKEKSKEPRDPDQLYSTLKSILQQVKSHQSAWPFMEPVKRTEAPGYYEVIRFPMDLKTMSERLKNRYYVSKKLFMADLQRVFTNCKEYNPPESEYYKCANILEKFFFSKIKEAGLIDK
# Protocol Text: Inhibition of recombinant human PCAF catalytic domain (492 to 658 aa) using histone H3 at 100 uM after 1 hr by radiochemical assay in presence of [acetyl-3H]-acetyl coenzyme A
Quantity Measured: inhibition (%)

# Compound, Meas Value
records = [
    ("C/C(=N/Nc1nc(-c2ccc(Cl)cc2)cs1)c1nccs1", 10),
    ("COc1cccc(-c2csc(NN=C(C)C)n2)c1", 4),
    ("Cc1sc(N/N=C2/CCC(C)C2)nc1-c1ccccc1 (stereo not given)", 3),
    ("C/C(=N/Nc1nc(-c2ccc(Cl)cc2)cs1)c1ccncc1", 10),
    ("CC1CC/C(=N/Nc2nc(-c3ccc(F)cc3F)cs2)C1 (stereo not given)", 18),
    ("Clc1ccc(-c2csc(N/N=C\\c3cccc4ccccc34)n2)cc1", 0),
]

a: Clc1ccc(-c2csc(N/N=C\c3cccnc3)n2)cc1
b: CC1CC/C(=N/Nc2nc(-c3ccc(C#N)cc3)cs2)C1 (stereo not given)
c: COc1ccc(-c2csc(N/N=C3/CCCC(C)C3)n2)cc1 (stereo not given)
d: Clc1ccc(-c2csc(N/N=C\c3ccco3)n2)cc1
Query: Rank order required: inhibition, descending. # answer = labels listed in requested order
Response: a, d, b, c
(a: 17%, d: 9%, b: 6%, c: 4%)

---

# Test Target: Histone acetyltransferase p300 (Homo sapiens) (UniProt Q09472)
# Sequence (Q09472 whole entry, the tested form may be a part): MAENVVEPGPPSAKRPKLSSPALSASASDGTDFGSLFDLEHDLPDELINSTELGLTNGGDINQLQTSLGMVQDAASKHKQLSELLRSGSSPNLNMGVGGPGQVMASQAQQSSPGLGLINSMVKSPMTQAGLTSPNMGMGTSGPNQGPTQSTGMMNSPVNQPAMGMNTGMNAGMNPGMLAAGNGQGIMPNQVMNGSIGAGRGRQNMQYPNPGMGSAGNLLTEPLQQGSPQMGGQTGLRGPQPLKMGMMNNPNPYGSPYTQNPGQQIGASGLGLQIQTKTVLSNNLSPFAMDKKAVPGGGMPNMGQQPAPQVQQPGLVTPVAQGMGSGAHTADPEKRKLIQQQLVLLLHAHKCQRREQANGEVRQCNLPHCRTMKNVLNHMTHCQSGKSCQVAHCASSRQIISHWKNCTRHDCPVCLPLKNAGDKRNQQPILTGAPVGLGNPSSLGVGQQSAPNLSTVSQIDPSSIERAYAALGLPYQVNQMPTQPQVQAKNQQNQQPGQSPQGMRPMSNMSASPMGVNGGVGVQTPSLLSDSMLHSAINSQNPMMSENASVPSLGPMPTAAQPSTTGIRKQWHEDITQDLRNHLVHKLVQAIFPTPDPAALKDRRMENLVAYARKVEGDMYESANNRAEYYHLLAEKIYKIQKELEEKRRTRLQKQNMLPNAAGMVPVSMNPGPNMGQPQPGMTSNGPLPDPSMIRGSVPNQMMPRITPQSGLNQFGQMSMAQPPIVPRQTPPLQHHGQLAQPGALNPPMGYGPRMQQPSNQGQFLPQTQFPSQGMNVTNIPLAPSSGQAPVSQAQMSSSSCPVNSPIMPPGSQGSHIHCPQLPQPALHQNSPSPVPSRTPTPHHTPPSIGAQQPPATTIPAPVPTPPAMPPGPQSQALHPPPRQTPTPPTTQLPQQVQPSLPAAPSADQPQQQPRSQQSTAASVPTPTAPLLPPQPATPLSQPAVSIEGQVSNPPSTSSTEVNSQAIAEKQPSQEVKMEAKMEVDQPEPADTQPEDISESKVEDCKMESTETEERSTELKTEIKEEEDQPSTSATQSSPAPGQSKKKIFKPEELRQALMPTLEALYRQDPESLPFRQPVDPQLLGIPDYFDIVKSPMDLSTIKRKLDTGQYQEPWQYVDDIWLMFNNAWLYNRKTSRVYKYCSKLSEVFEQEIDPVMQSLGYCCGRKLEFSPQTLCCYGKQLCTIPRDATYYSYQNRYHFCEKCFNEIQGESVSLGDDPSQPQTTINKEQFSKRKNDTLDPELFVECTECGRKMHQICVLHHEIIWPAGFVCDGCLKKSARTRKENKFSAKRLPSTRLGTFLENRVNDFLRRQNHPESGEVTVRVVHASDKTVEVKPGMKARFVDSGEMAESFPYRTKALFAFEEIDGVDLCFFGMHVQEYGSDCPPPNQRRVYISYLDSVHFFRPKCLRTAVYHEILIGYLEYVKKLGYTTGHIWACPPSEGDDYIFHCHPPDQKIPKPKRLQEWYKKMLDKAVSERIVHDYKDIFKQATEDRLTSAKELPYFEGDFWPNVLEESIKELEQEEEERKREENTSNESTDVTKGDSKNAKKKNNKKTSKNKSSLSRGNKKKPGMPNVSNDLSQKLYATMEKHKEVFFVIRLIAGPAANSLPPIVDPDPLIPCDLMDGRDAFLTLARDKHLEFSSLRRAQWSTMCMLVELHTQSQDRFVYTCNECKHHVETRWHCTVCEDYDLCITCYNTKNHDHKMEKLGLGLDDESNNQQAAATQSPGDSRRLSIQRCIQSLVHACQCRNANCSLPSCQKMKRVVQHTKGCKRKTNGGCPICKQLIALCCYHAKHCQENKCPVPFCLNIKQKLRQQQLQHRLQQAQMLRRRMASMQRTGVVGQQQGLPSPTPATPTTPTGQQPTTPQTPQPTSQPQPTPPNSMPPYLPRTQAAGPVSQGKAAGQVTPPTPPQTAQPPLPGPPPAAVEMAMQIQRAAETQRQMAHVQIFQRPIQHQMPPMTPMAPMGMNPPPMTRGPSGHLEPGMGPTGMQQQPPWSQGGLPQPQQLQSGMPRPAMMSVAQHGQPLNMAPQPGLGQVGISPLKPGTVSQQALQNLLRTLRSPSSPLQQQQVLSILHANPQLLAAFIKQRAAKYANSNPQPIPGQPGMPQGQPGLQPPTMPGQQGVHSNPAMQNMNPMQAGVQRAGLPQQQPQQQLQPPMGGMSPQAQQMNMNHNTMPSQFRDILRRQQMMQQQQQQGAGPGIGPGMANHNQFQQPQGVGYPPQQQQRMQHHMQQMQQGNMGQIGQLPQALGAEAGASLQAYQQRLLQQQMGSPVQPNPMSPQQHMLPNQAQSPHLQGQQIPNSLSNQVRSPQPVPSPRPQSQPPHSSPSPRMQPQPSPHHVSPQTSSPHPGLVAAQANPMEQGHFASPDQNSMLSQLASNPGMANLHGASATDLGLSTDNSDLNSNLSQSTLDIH
# Protocol Text: Inhibition of recombinant human p300 catalytic domain (1284 to 1673 aa) using histone H3 at 100 uM after 1 hr by radiochemical assay in presence of [acetyl-3H]-acetyl coenzyme A
Quantity Measured: inhibition (%)

Field: example entries. Status: answers known.
# Compound, Test Target, Quantity Measured, Quantity Unit, Meas Value
measured = [
    ("C[C@@H]1CCC/C(=N/Nc2nc(-c3ccc(Cl)cc3)cs2)C1", "Histone acetyltransferase p300 (Homo sapiens) (UniProt Q09472)", "inhibition", "%", 27),
    ("Clc1ccc(-c2csc(NN=C3CCCCCC3)n2)cc1", "Histone acetyltransferase p300 (Homo sapiens) (UniProt Q09472)", "inhibition", "%", 20),
    ("Clc1ccc(-c2csc(N/N=C\\c3ccc4c(c3)OCO4)n2)cc1", "Histone acetyltransferase p300 (Homo sapiens) (UniProt Q09472)", "inhibition", "%", 11),
    ("NNc1nc(-c2ccccc2)cs1", "Histone acetyltransferase p300 (Homo sapiens) (UniProt Q09472)", "inhibition", "%", 5),
    ("CC1CC/C(=N/Nc2nc(-c3ccc(Cl)cc3)cc(=O)[nH]2)C1 (stereo unspecified)", "Histone acetyltransferase p300 (Homo sapiens) (UniProt Q09472)", "inhibition", "%", 41),
]

A: Clc1ccc(-c2csc(N/N=C\c3ccco3)n2)cc1
B: CCCCC/C(C)=N/Nc1nc(-c2ccc(Cl)cc2)cs1
Query: Which record shows the lower inhibition: the first, A , or the second, B ? Identify your selection by its label.
Response: B

---

# Test Target: Histone acetyltransferase KAT2B (Homo sapiens) (UniProt Q92831)
# Protocol Text: Inhibition of recombinant human PCAF catalytic domain (492 to 658 aa) using histone H3 at 100 uM after 1 hr by radiochemical assay in presence of [acetyl-3H]-acetyl coenzyme A
Quantity Measured: inhibition (%)

# Compound, Test Target, Meas Value
records = [
    ("CCC(C)/C(C)=N/Nc1nc(-c2ccc(Cl)cc2)cs1 (stereo not given)", "Histone acetyltransferase KAT2B (Homo sapiens) (UniProt Q92831)", 9),
]

A: Clc1ccc(-c2csc(N/N=C\c3ccncc3)n2)cc1
B: CC1CC/C(=N/Nc2nc(-c3ccc(F)cc3)cs2)C1 (stereo not given)
Query: Field: lower recorded inhibition (choose A or B ) Give the label of your selection.
Response: B
(B: 8%, A: 13%)

1: C/C(=N/Nc1nc(-c2ccc(Cl)cc2)cs1)c1ccco1
2: CC1CC/C(=N/Nc2nc(-c3ccc(Cl)cc3)cc(=O)[nH]2)C1 (stereo not given)
3: CC(C)=NNc1nc(-c2ccccc2)cs1
4: O=[N+]([O-])c1cccc(-c2csc(NN=C3CCCC3)n2)c1
Query: Reorder the items by inhibition, least to greatest. Returns: the labels listed in the requested order.
Response: 3, 1, 2, 4
(3: 0%, 1: 2%, 2: 8%, 4: 15%)

The measurements presented in this section are drawn from ChEMBL document CHEMBL3259575.
